# testTarget: Src tyrosine kinase (Homo sapiens)
# testSummary: Src kinase inhibition
# Type: biochemical
# testConditions: in the presence of 320 μM Ac-pTyrGluGluIle-amide (SH2 ligand competition)
assayMetric: IC50

substance	testTarget	assayMetric	endpointValue
Ba-EEEIFGEF-Dap(Hna)-βA-III-βA-pYEEIEX [Compound 6]	Src tyrosine kinase (Homo sapiens)	IC50	0.325 µM

----------
Quick list: IC50 per entry.
# testTarget: Src tyrosine kinase (Homo sapiens, UniProt P12931)
# testSummary: Src kinase inhibition
# Type: biochemical
# testConditions: Table 1, Src inhibitors, pre-photolysis

substance	resultUnit	IC50
Ba-EEEIFGEF-Dap(Hna)-βA-I-βA-pYEEIEX [Compound 4]	nM	115
Ba-EEEIFGEF-Dap(Hna)C-III-βA-pYEEIE-NH2 [Compound 11]	nM	56
Ba-EEEIFGEF-Dap(Hna)-βA-II-βA-pYEEIEX [Compound 5]	nM	38
Ba-EEEIFGEF-Dap(Hna)-βA-III-βA-pYEEIEX [Compound 6]	nM	18
Ba-EEEIFGE-III-Dap(Hna)-βA3-pY-III-EIEX [Compound 9]	nM	7500
Ba-EEEIFGEF-Dap(Hna)-βA-III-βA-pY-III-EIEX [Compound 10]	nM	1600
Ba-EEEIFGE-II-Dap(Hna)-βA3-pYEEIEX [Compound 7]	nM	220

Recorded values, source paper PMC2628309.
